For each of the compounds below, state its Potency.
Assay: Drug repurposing screens with cells derived from glioblastoma tumor samples (AID 1345199); also: potency is read from the fitted curve at half-maximal effect; nearly all actives have a fitted effect of over 40% in size
Details: GBM patient neurospheres viability, ATP luminescence, 48 h; tumour line A
Inconclusive results are not listed. Calls of active or inactive are those of the source. Calls follow the shape of the dose curve; as a rule, active = well fitted inhibition curve with a large enough effect; inconclusive = small, poorly fitted or top-dose-only effect; inactive = flat fitted curve, though single readings scatter.

Potency for CCCC(=O)OC[C@@H](OC(=O)CCC)[C@@H](OC(=O)CCC)[C@H](Cn1c2nc(=O)[nH]c(=O)c-2nc2cc(C)c(C)cc21)OC(=O)CCC ?
8.91 µM (active)

Potency for COc1cc(NC(C)CCCN)c2ncccc2c1 (stereo not given) ?
10 µM (active)

Potency for CN1[C@@H]2CC[C@H]1CC(OC(c1ccccc1)c1ccccc1)C2 (stereo not given in full) ?
7.08 µM (active)

Potency for C#C[C@]1(O)CC[C@H]2[C@@H]3CCc4cc(O)ccc4[C@H]3CC[C@@]21C ?
12.6 µM (active)

Potency for CC(N)C(=O)OC(C)(C)Cc1ccc(Cl)cc1 (stereo not given) ?
20 µM (active)

Potency for CN1CCN(c2cc3c(nn2)Oc2ccccc2N3C)CC1 ?
11.2 µM (active)

Potency for CCCCC1C(=O)N(c2ccccc2)N(c2ccc(O)cc2)C1=O (stereo not given) ?
7.94 µM (active)

Potency for CN1[C@@H](CC(=O)c2ccccc2)CCC[C@H]1C[C@H](O)c1ccccc1 ?
10 µM (active)

Potency for COC(=O)C1=C(C)NC(C)=C(C(=O)OCC(C)C)C1c1ccccc1[N+](=O)[O-] (stereo not given) ?
10 µM (active)

Potency for CCCCCCOc1ccccc1C(N)=O ?
14.1 µM (active)

Cited source for all entries: PubChem BioAssay (NCATS)
